Origin of the recorded values: patent US20230257396A1

TARGET_DESC: kinases (Homo sapiens)
Construct: purchased Eurofins/DiscoveRx; host or cells: E. coli BL21-derived host (T7 phage display) for most kinases; HEK-293 for the rest
Sequence (P00519 whole entry): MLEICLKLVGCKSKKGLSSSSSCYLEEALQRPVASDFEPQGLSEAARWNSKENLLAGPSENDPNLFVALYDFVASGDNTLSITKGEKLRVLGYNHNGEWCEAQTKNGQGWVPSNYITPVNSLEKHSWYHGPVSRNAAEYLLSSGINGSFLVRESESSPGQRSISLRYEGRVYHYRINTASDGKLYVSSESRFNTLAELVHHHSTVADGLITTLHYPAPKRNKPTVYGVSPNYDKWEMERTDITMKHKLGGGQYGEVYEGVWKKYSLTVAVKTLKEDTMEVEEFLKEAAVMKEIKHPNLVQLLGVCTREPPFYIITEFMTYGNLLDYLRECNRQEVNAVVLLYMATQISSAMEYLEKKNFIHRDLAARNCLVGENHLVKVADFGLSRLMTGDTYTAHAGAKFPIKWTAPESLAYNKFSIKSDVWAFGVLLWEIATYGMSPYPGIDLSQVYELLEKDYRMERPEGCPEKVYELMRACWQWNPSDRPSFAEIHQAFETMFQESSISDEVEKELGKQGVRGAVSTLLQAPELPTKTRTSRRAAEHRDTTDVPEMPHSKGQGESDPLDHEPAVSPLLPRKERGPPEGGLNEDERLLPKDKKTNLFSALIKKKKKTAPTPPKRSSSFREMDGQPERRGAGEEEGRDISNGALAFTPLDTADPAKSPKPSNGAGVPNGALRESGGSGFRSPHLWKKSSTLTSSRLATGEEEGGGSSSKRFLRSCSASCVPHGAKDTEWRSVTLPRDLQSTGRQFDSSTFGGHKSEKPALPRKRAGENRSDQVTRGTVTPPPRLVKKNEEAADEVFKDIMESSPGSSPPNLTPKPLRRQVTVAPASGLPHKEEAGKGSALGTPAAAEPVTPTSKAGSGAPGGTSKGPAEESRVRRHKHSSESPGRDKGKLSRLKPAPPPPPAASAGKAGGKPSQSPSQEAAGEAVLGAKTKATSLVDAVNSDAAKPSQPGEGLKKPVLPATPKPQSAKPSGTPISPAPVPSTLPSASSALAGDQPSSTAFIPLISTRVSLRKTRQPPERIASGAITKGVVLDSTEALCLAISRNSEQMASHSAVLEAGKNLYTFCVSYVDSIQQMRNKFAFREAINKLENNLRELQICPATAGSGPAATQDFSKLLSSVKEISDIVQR
METHOD_SUMMARY: KINOMEscan kinase binding assay (Eurofins/DiscoveRx), % Ctrl
TEST_PARAMETERS: 1 μM; ABL1-nonphosphorylated
MEASURED_PARAMETER: % Ctrl, ABL1-nonphosphorylated (% Ctrl)
Provide only the numeric value, understood in % Ctrl.

Some entries whose results are on file:
Cc1cc2c([nH]1)/C=C1\C(=O)Nc3ccc(cc31)-c1cnn(C)c1CN(C)CCN(C)C2=O | 0
Cc1cc2c([nH]1)/C=C1\C(=O)Nc3ccc(cc31)OCCOCCNC2=O | 84
Cc1cc2c([nH]1)/C=C1\C(=O)Nc3cc(Cl)c(cc31)OCCO[C@@H](C(=O)N(C)C)CN(C)C2=O | 43

Consider the record given below.
// map "Cc1cc2c([nH]1)/C=C1\C(=O)Nc3ccc(cc31)-c1ccnn1CCOCCNC2=O" to recorded % Ctrl, ABL1-nonphosphorylated (system: kinases (Homo sapiens)) 73
